Test system: Human immunodeficiency virus 1
TEST_METHOD_NOTES: Antiviral activity against multidrug-resistant HIV1-C infected in phytohemagglutinin-activated human PBMC cells assessed as inhibition of virus-induced cytopathic effect measured after 7 days by MTT assay
Format: functional, organism-based
TEST_CONDITIONS: Human immunodeficiency virus 1, C, 168 h
Consider the following compounds; for each one, report its pEC50.
// scale note: pEC50 = -log10(conc_M); give the bare number

Enquiry: Which pEC50 reading was recorded for the compound CC(C)(C)NC(=O)[C@@H]1C[C@@H]2CCCC[C@@H]2CN1C[C@@H](O)[C@H](Cc1ccccc1)NC(=O)[C@H](CC(N)=O)NC(=O)c1ccc2ccccc2n1 ?
Return: 7.46

Enquiry: Now consider CC(C)CN(C[C@@H](O)[C@H](Cc1ccccc1)NC(=O)O[C@H]1CO[C@H]2OCC[C@H]21)S(=O)(=O)c1ccc2c(c1)OCO2 and answer again.
Return: 8.57

Enquiry: Now consider COc1ccc(S(=O)(=O)N(CC(C)C)C[C@@H](O)[C@H](Cc2ccccc2)NC(=O)O[C@H]2CO[C@H]3OCC(F)(F)[C@H]32)cc1 and answer again.
Return: 8.70

Enquiry: Now consider COC(=O)N[C@H](C(=O)N[C@@H](Cc1ccccc1)[C@@H](O)CN(Cc1ccc(-c2ccccn2)cc1)NC(=O)[C@@H](NC(=O)OC)C(C)(C)C)C(C)(C)C and answer again.
Return: 7.41

Enquiry: Now consider Cc1c(O)cccc1C(=O)N[C@@H](CSc1ccccc1)[C@H](O)CN1C[C@H]2CCCC[C@H]2C[C@H]1C(=O)NC(C)(C)C and answer again.
Return: 6.60
